- method.description: yeast display, Sf9 membrane polyspecificity reagent, FACS + sequencing; frameworks hold sequencing errors
measure: polyreactivity (PSR sort gate)

Please review the following examples before continuing.
| chain.sequence | polyreactivity (PSR sort gate) |
| --- | --- |
| QVQLVESGRGLVQAGGSLRLSCASSGSTFRWNAMGWYRQAPGKERELVAAISQSGSSTYYADSVKGRFTISRDNAKNTVYLQMNSLKPEDTAVYYCAARTGRKYYYWGQGTQVTVSS | low polyreactivity |
| QVQLVESGGGLVQAGGSLRLSCAASGSIFKRNAMGWYRQAPGKERELVASITWRGGRTYYADSVKGRFTISRDNAKNTVYLQMNILKPEDTAVYYCATTQYTSHYDAYGYWGQGTQVTVSS | high polyreactivity |
| QVQLVESGGGLVQAGGSLRLSCAASGSTFARYTMGWYRQAPGKERELVAAITSNGVSTYYADSVKGRFTISRDNAKNTVYLQMNSLKPEDTAVYYCAASSRSRYGRNDYWGQGTQVTVSS | low polyreactivity |
| QVQLVESGGGLVQAGGSLRLSCAASGIIFRPNAMGWYRQEPGKERELVAAISRNGVRTYYSDSVKGRFTISRDNAKITVYLQMNSLKPEDTAVYYCNRDYNAAYDWGEGTQVTVSS | high polyreactivity |
| QVQLVESGGGLVQAGGSLPLSCAASGFIFTSNAMGWYRQAPGKERELVASISGNGGRTNYADSVKGRFTISRDNAKNTVYLQMNSLKPDDTAVYYCAARVRRFLNRVSRYPHDYWGQGTQVTVSS | high polyreactivity |

Ask: polyreactivity (PSR sort gate) for "QVQLVETGGGLVQAGGSLRLSCAASGSIFYAYAMGWYRQAPGKERELVATITSGGSTNYADSVKGRFTISRDNAKNTVYLQMNSLKPEDTAVYYCAVDISYSLGGGFGYDYWGQGTQVTVSS" ?
Result: low polyreactivity

Ask: polyreactivity (PSR sort gate) for "QVQLVESGGGLVQAGGSLRLSCAASGFIFDSYAMGWYRQAPGKERELVAAISYSAGSTSYADSVKGRFTISRDNAKNTVYLQMNSLKPEDTAVYYCNARYYPLYSNSYYSWGQGTQVTVSS" ?
Result: low polyreactivity

----------
- method.description: yeast display, Sf9 membrane polyspecificity reagent, FACS + sequencing; frameworks hold sequencing errors
measure: polyreactivity (PSR sort gate)

Please review the following examples before continuing.
| chain.sequence | polyreactivity (PSR sort gate) |
| --- | --- |
| QVHLVESGGGLVQAGGSLRLSCAASGRSFRRNARGWYRQAPGKERELVATISSGGTTKYADSVKGRFTISRDNAKYTVYLQMNNLKPEDTAVYYCNADLNRRTYGPDSYYWGQGNQVTVSS | high polyreactivity |
| QVHLVESGGGLVQAGGSLRLSCAASGRIFADYAMGWYRQAPWKERELVADIRQSGGRTYYADSVKGRFTISRDYAKNTVDLQMNSLKPEDTAVYYCATDYGSWGDYSGKYDYWGQGTQVTVSS | low polyreactivity |
| QVQIVESGGGLDQAGGSLRLSCADSGSILYYYAMGCYRQAPGKETELVATITDSGDSTYYADSVKGRFTISRDNAKNTVYLQMNSLKPEDTAVYYCAAEGRYFYFTVKMDYWGQGTQVTVSS | low polyreactivity |
| QVQLVESGGGLVQAGGSLRLICAASGFIIYIYAMGWYRQAPGKERELVAAISRSGVGTYYADSVKGRFTISRDNAKNTVYLQMNSLKPEDTAVYYCARSRSGYRYDYWGQGTQVTVSS | high polyreactivity |
| QVQLVESGGRLVQAGGSLRLSCASSGSTFVPNDMGLYRQAPGKERELVAAISRSGDDTYYADSVKGRFTISRDNAKNNVYLQMNSLKPVYTAVYYCAASAGYAYNYWGQGTQVTVSS | low polyreactivity |
| QVQLVESGGGLVQAGGSLSLSCAASGSTYFYAMGWYRQAPGKERELVAAISFSDGITYYADSVKGRFTISRDNAKNTVYLQMNSLKPEDTAVYYCAADYISLREEDYWGQGTQVTVSS | high polyreactivity |

Ask: polyreactivity (PSR sort gate) for "QVQLVESGGGLVQAGGSLRLTCAASGGTFRLYAMGWYRQAPGKERELVAAISSTGSTYYAASVKGRFTISRDNAKNTVYLQMNSLKPEDTAVYYCNAKLPVTSLKFDYYYWGQGTQVTVSS" ?
Result: high polyreactivity

Ask: polyreactivity (PSR sort gate) for "QVQLVESGGGLVQAGGSLRLSCAASGSTFSYNTMGWYRQAPGKERELVASNTRSGGSTNYADSVKGRFTISRDNAKNTVYLQMNSLKPEDTAVYYCAKDYISVWNVRASDYYWYDYWGQGTQVTVSS" ?
Result: low polyreactivity

Ask: polyreactivity (PSR sort gate) for "HVHLVESGGGLVQAGGSLRLSCAASGRTFSRYAMGWYRQAPGKERELVAAITSGGSTNYADSVKGRFTISRDNAKNTVYLQKNSLKPEDTAVYYCAKRYFRSSRDGLGTTHPYDYWGQGTQVTVSS" ?
Result: high polyreactivity
